- Tested on: MCF7 breast
- TEST_DETAILS: NCI-60 one-dose screen, 48 h
- CONDITION: 10 µM
About 83,000 compounds went through this panel and 20% of them were active in at least one assay; those are over-represented in the sample as a whole. Active and inactive are the calls of the source. The calls were made as follows: active = growth percent below 10; inactive = the rest.
Field 'call' accepts yes for active, no for inactive

Each molecule tested received a call. Report the one for COc1cc(C2CC(c3ccc(Nc4ccnc5cc(Cl)ccc45)cc3)=NN2c2ccc(Cl)cc2)cc(OC)c1OC (centres undefined) .
no

Assay result, entry O=C1C(c2ccccc2)C2C=CC(C2)N1O (centres undefined) — outcome?
no

Hi team, can someone confirm the assay call for N#CCCN1C/C(=C/c2ccc(Br)cc2)C(=O)/C(=C/c2ccc(Br)cc2)C1 ?
yes

Assay outcome for CCN(CC)CCOc1nc2cc(OC)c(OC)cc2c2c1-c1ccc(OC)cc1C2=O : what was it?
no

Which outcome did this test record for the molecule CCCCCCN1CCN(Cc2ccc(N(CC)CC)cc2)C(=O)C1=O ?
no

Could you kindly confirm the outcome this assay logged for O=C(Nc1ccncc1)C(=O)c1cn(S(=O)(=O)c2cc(Cl)cc(Cl)c2)c2ccccc12 ?
no

I would be grateful if you could indicate the recorded call for CCN1CCC(CCOC)(CN2c3ccccc3Sc3ccc(Cl)cc32)C1 (centres undefined) .
no

For this molecule, state the assay outcome: COc1ccc(-c2nsc3c2NC(=O)CC3c2ccc(F)cc2)cc1 (centres undefined)
no

Identify the outcome logged in this assay for the molecule shown: C#Cc1ccc(-n2c(/C=C/c3ccc(O)cc3)nc3ncccc3c2=O)cc1
no

Which outcome was assigned to COc1cc(/C=C/C(=O)c2ccc(Cl)cc2)ccc1OS(=O)(=O)c1ccc(C)cc1 in this test?
no

Each molecule tested received a call. Report the one for COc1ccc(-c2cc(-c3cccc(NS(C)(=O)=O)c3)nc(N)c2C#N)cc1 .
no

Just curious, what result did COC(=O)c1c(-c2ccccc2)csc1NC(=O)c1c(-c2ccccc2)noc1C get here?
no

Outcome? CCCCCCCCN(CCCCCCCC)CCCCCCCCCN1CCCc2cc(OC)ccc21
no

Entry COc1cc(-c2nc(-c3nnc(-c4ccc(F)c(Cl)c4)o3)c3ccccn23)cc(OC)c1OC : call = ?
no
